ASSAY OVERVIEW: NCI Yeast Anticancer Drug Screen. Data for the bub3 strain (AID 167)
CONDITION CONTEXT: S. cerevisiae bub3 mutant strain, at 5.0 µM (retest, dose inferred, filed as 0.5)
Compounds without any hit were thinned out: in the full panel of roughly 79,000, 15% have a hit. The source made the active and inactive calls. Cut-off read from the data, not from the text of the source: active = growth inhibition above about 70%; inactive = the rest.
Choose one outcome from this list and give only that: 1 = active, -1 = inactive

Consider the worked cases shown below.
1) CCCCCCN(CCCCCC)CC(O)c1cc(-c2ccccc2)nc2c(O)cccc12 (centres undefined)	-1
2) Nc1nc2c(ccc3ccccc32)s1	-1
3) Cc1ccsc1/C=N/Nc1ccc2ccccc2n1	-1

Query: # outcome recorded in this test, key = Nc1nc(N)c2nc(CNc3ccc(C(=O)NC(CCC(=O)O)C(=O)O)cc3)cnc2n1 (centres undefined)
Reply: -1

Query: Another compound to check: Cc1ccc(S(=O)(=O)Nc2ccccc2Cl)cc1
Reply: -1

Query: Another compound to check: COc1ccc(CN(C)c2c(C)ccc3ccccc23)cc1
Reply: -1

Query: Another compound to check: CC1=NN(c2nc(N)nc(C(C)Sc3cc(Cl)c(C)cc3S(N)(=O)=O)n2)C(C)(C)C1 (centres undefined)
Reply: -1

Query: Another compound to check: CCOC(=O)NC(NC(=O)OCC)C(=O)Nc1cccc2c(OC(=O)C(NC(=O)OCC)NC(=O)OCC)c(N=Nc3ccc(S(=O)(=O)Nc4nccs4)cc3)cc(N=Nc3ccc(S(=O)(=O)Nc4nccs4)cc3)c12 (tested in a mixture with another compound)
Reply: 1

Query: Another compound to check: CCOC(=O)C(CCc1ccccc1[N+](=O)[O-])C(C)=O (centres undefined)
Reply: -1

---

ASSAY OVERVIEW: NCI Yeast Anticancer Drug Screen. Data for the sgs1 mgt1 strain (AID 161);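 note: 0% = growth of cultures given vehicle only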
CONDITION CONTEXT: S. cerevisiae sgs1 mgt1 strain, at 50.0 µM (retest, dose inferred, filed as 5.0)
Compounds without any hit were thinned out: in the full panel of roughly 79,000, 15% have a hit. The source made the active and inactive calls. Cut-off read from the data, not from the text of the source: active = growth inhibition above about 70%; inactive = the rest.
Choose one outcome from this list and give only that: yes for active, no for inactive

Consider the worked cases shown below.
1) COc1ccc2c(c1OC)C(C(Cl)(Cl)Cl)N1CCc3cc4c(cc3C1=C2)OCO4 (stereo not drawn)	yes
2) c1cc(C2=NCCN2)ccc1Nc1ccc(-c2cc3ccc(C4=NCCN4)cc3[nH]2)cc1	yes
3) N#CSCc1ccc(CSC#N)c(Cl)c1	yes
4) CCCCCCCCSCc1ccc(N)cc1	yes
5) COc1ccc(OC)c(N=Nc2c(C)[nH]n(C(N)=S)c2=O)c1	no
6) O=c1oc2cc(N=Cc3ccc4c(c3)OCO4)ccc2c2ccccc12	no
7) Cc1cc(C)nc(/C=C/c2ccc(/C=C/c3cc(C)cc(C)n3)cc2)c1	no
8) O=C(O)c1c2c(cc3c1CC1(Cc4cc5c(cc4C1=O)CCC5)C3)CCC2 (stereo not drawn)	no
9) COC(=O)c1cc2c(c(C(=O)OC)c1O)C(=O)C=CC2=O	yes
10) CCN(CC)c1ccc(SC#N)cc1	yes

Query: # outcome recorded in this test, key = NC(=O)c1nnn(Cc2cc(Cl)c(C(=O)c3ccc(Cl)cc3)c(Cl)c2)c1N
Reply: yes

Query: Another compound to check: CCC1(c2ccc(N3C(=O)c4ccccc4C3=O)cc2)CCC(=O)NC1=O (stereo not drawn)
Reply: no

Query: Another compound to check: CCCCCCCCCCCCCCCCNc1ccn(C2CC(OP(=O)(O)OCC3OC(n4cc(CC)c(=O)[nH]c4=O)CC3O)C(CO)O2)c(=O)n1 (stereo not drawn)
Reply: yes

Query: Another compound to check: O=C([O-])c1ccc([I+]c2ccccc2)cc1
Reply: no

Query: Another compound to check: CC(C)C(OC(=O)c1ccc(NCc2cc(O)ccc2O)cc1)C(C)C
Reply: yes

Query: Another compound to check: CC1CC(C)C(C)C(CO)C1 (stereo not drawn)
Reply: no

Query: Another compound to check: CCCCC(CC)(CCC)CCN (stereo not drawn)
Reply: no

Query: Another compound to check: [N-]=[N+]=Nc1c(Cc2ccccc2)c(=O)oc2ccccc12
Reply: yes

Query: Another compound to check: CN(C)/N=C(/CC(O)(C(F)(F)F)C(F)(F)F)c1ccc([N+](=O)[O-])cc1
Reply: no

Query: Another compound to check: CC1SC(=S)N(c2ccc(Cl)cc2)C1=O (stereo not drawn)
Reply: no

Query: Another compound to check: COc1cccc(C2c3cc4c(cc3OC(Nc3ccccc3)C2C)OCO4)c1O (stereo not drawn)
Reply: yes

Query: Another compound to check: Cc1cc2cc3c(c(C(=O)O)c2o1)C(=O)c1ccc2ccccc2c1C3
Reply: yes

Query: Another compound to check: CC(=O)c1csc2c1C(=O)c1scc(C(C)=O)c1C2=O
Reply: no
